tested on: SK-MEL-2 melanoma; assay: NCI tumour cell line growth inhibition, 48 h
Here, each record is paired with measured TGI data.

compound	quantity name	readout value
CCOC(=O)N(Cc1cccs1)c1cc(OC)c(OC)c(OC)c1	TGI	> 100 µM

query: Entry CCOC(=O)C(=[N+]=[N-])C(=O)C1(C(=O)OCC)CCN(C(=O)c2ccccc2)C1=O (stereo not drawn) has what TGI?
result: > 100 µM

query: Record request: TGI value, item C=CCOc1cccc(/C=C2\SC(=Nc3ccc(O)cc3)NC2=O)c1
result: 18.5 µM

query: What value of TGI has been reported for the following compound? Cc1cc(N(CCC#N)CCC#N)ccc1N=Nc1cccc(C(=O)O)c1
result: > 100 µM

query: Which TGI reading was recorded for the compound CSc1ncc2c(C#N)c3sc4ccccc4n3c(=O)c2n1 ?
result: > 100 µM

query: Dear colleague, I am looking for the recorded TGI of the following compound: C=CCNc1nc(C#N)c(N)s1
result: > 10 µM

* * *

tested on: U251 CNS; experiment: NCI tumour cell line growth inhibition, 48 h
quantity name: TGI

Solved entries:
compound	readout value
COc1cc(/C=C/c2cc(O)c3cc(C(C)=O)c(=O)oc3c2)cc2c1O[C@]1(C)CC[C@@H](O)C(C)(C)[C@H]1C2	> 81.4 µM
N#CCc1nc2ccccc2c(=O)[nH]1	> 100 µM
O=C(/C=C(\O)c1ccccc1)C(=O)NNc1ccc([N+](=O)[O-])cc1[N+](=O)[O-]	28.1 µM

query: U251 CNS / TGI / CC[C@H]1C=CCC[C@@]2(C[C@@H]3CC[C@@H]4[C@H](C(=O)OCCCCCCCCCCCCCCCC(=O)O)[C@]5(CCC[C@@H](C)O5)NC(=[N+]34)N2)O1 : value?
result: 0.903 µM

* * *

system: SNB-19 CNS; test: NCI tumour cell line growth inhibition, 48 h
quantity name: TGI (µM)
Numeric only. Scale: µM

smiles data	TGI (µM)
O=C1c2cccnc2C(=O)c2nc3cc(N4CCN(C5CC5)CC4)ccc3nc21	3.63

Here is the next item to consider.
query: Name the reported TGI value associated with the molecule O=C(/C=C/c1csc(-c2ccccc2)n1)NCc1ccc(C(=O)NCCc2ccccc2)cc1
result: 49.1

* * *

tested on: DU-145 prostate; experiment: NCI tumour cell line growth inhibition, 48 h
Catalogue of TGI readings, one per entry.

compound	TGI
CCCCCCCCCCC(C(=O)O)C1(C(=O)O)CCC(=O)O1 (stereo unspecified)	> 100 µM
O=C(c1cccc2ccccc12)C1(Br)S(=O)(=O)OCCOS1(=O)=O	> 100 µM
CCOC(=O)c1cc(NS(=O)(=O)c2ccccc2)cc(C(=O)OCC)c1	> 100 µM
O=S(=O)(O)c1ccc(O)c2ncc(Cl)cc12	> 100 µM
CC1SC(c2ccccc2)N(CCc2cccs2)C1=O (stereo unspecified)	19.9 µM

Let us move to another entry and its TGI.
query: Identify the measured TGI of S=c1sc2c(s1)SCCCCSCCCCSc1sc(=S)sc1SCCCCSCCCCS2 for DU-145 prostate.
result: > 100 µM

* * *

test system: SF-268 CNS; assay: NCI tumour cell line growth inhibition, 48 h; in the data active = GI50 below about 0.43 µM; inactive = the rest
Pick from active, inactive when you respond.

Consider the worked cases shown below.
molecule	answer label
COc1cc2c(c(OC)c1)C1c3ccccc3NC(=O)N1CC2 (configuration not stated)	inactive
CC1(C)CC(=O)c2c(C(F)(F)F)nn(-c3ccc(C(N)=O)c(NC4CCC(OC(=O)CN)CC4)c3)c2C1 (configuration not stated)	active
CCCCCCCCCCCCCCCCN1CC2CCCCC2C1 (configuration not stated)	inactive

query: Check the results log: what was the call for Cn1cccc1-c1cc(-c2cccs2)nc(N)c1C#N ?
result: inactive

query: What call does the record list for O=C(NCCO)Nc1ccc(-c2nc(N3CCOCC3)c3cccn3n2)cc1 ?
result: active

query: Fill in: this test's call for CCN(CC)CC(C)Nc1ccc([N+](=O)[O-])c2sc3ccccc3c(=O)c12 (configuration not stated) is ___
result: inactive

query: Assay result, entry COC(C(=O)[O][Ge]([CH3])([CH3])[CH3])c1ccccc1 (configuration not stated) — outcome?
result: inactive

* * *

tested on: TK-10 renal; experiment: NCI tumour cell line growth inhibition, 48 h; in the data active means GI50 below about 0.43 µM; inactive means the rest
Can you answer with just one of these options? true = active, false = inactive

molecule	answer label
O=C(NCCO)Nc1ccc(-c2nc(N3CCOCC3)c3cccn3n2)cc1	true
COc1ccc(-c2nn3c(-c4cc(F)c(Cl)cc4Cl)nnc3s2)cc1	false
CCN(CC)CC(C)Nc1ccc([N+](=O)[O-])c2sc3ccccc3c(=O)c12 (stereo not given)	false
CC1(C)CC(=O)c2c(C(F)(F)F)nn(-c3ccc(C(N)=O)c(NC4CCC(OC(=O)CN)CC4)c3)c2C1 (stereo not given)	true
COC(=O)[C@H](C[C@H](Cc1ccccc1)NC(=O)c1csc([C@@H](C[C@H](C(C)C)N(C)C(=O)[C@@H](NC(=O)[C@H]2CCCCN2C)C(C)C)OC(C)=O)n1)NC(=O)OCc1ccccc1	true
O=C1c2cccnc2C(=O)c2nc3cc(N4CCN(C5CC5)CC4)ccc3nc21	false
COc1ccc(/C(=C2/O[C@@H]([C@H]3COC(C)(C)O3)[C@H]3OC(C)(C)O[C@@H]23)c2cc(OC)c(OC)c(OC)c2)cc1O	false
CN(C)CCNc1c2c(c(NCCN(C)C)c3[nH]ccc13)C(=O)c1ccccc1C2=O	false
CCc1nccc2c1nc(-c1nonc1N)n2CC	false

Kindly review the next molecule as well.
query: So what was the verdict on CC[C@@H](C(=O)O)C1CC[C@H](C)C([C@@H](C)[C@H](O)[C@H](C)C(=O)[C@H](CC)C2O[C@]3(C=C[C@@H](O)[C@]4(CC[C@@](C)(C5CC[C@](O)(CC)[C@H](C)O5)O4)O3)[C@H](C)C[C@@H]2C)O1 (stereo not given in full) in this test?
result: false

* * *

test system: NCI/ADR-RES ovarian; experiment: NCI tumour cell line growth inhibition, 48 h
Parameter: TGI. Scope: all listed entries.

Look over these answered cases.
compound	readout value
CC(=O)NC(CS/N=N/c1nc[nH]c1C(N)=O)C(=O)O (stereo not drawn)	> 100 µM
Cc1ccccc1[P+](Cc1ccccc1)(c1ccccc1)c1ccccc1	> 100 µM

query: Give its TGI value. Item: COc1ccc(-c2csc(N(C(=O)N3CCN(c4cc5c(cc4F)c(=O)c(C(=O)O)cn5C4CC4)CC3)c3ccccc3)n2)cc1
result: > 100 µM

query: # input compound: C=CCOc1ccc(/C(N=Nc2ccc([N+](=O)[O-])cc2)=N/NC(=O)c2ccccc2)cc1OC ; wanted: its TGI
result: > 100 µM

* * *

test system: SK-MEL-2 melanoma; assay: NCI tumour cell line growth inhibition, 48 h
Reported TGI values for the following compounds.

compound	TGI
COc1ccc(OC)c(NC(=O)C2=C(C)NC(C)=C(C(=O)Nc3cc(OC)ccc3OC)C2c2ccccc2)c1	> 100 µM
N#CC12C(=O)N3C(=NC(c4ccccc4)NC3c3ccccc3)C1(C#N)C(c1ccccc1)NC1=C2CCC1 (stereo unspecified)	> 100 µM
Cc1ccc(N=Cc2ccc3c(c2)OCO3)cc1C	> 100 µM

query: Can you look up the measured TGI of CS(=O)(=O)N1CC(CCl)c2ccc([N+](=O)[O-])cc21 (stereo unspecified) for me?
result: > 100 µM

query: May I ask what TGI has been recorded for Cc1nc2cccc(F)c2c(=O)n1C1CCCCNC1=O (stereo unspecified) ?
result: > 10 µM

query: Recorded TGI for O=C1/C(=C\c2c[nH]c3ccccc23)c2ccccc2N1c1c(Cl)cccc1Cl , please?
result: 3.65 µM

query: Form field: reported TGI of CCNCCNc1c2ccccc2nc2ccccc12
result: 3.63 µM

* * *

tested on: SF-295 CNS; assay: NCI tumour cell line growth inhibition, 48 h
TGI for assorted compounds

compound	TGI
CCOC(=O)C(=[N+]=[N-])C(=O)C1(C(=O)OCC)CCN(C(=O)c2ccccc2)C1=O (centres undefined)	> 100 µM
ONc1ncnc2nc[nH]c12	> 100 µM
O=C(/C=C/c1ccccc1)c1cc(Br)ccc1O	31.5 µM

query: Look at this compound and give its reported TGI. C=CC/C=C/Cc1csc(C(C)(C)C(O)C/C=C/C(=C)CCNC(=O)OC)n1 (centres undefined)
result: > 100 µM

query: Quick check: TGI of CC#CC#C/C=C1/O[C@]2(CCC(OC(C)=O)CO2)[C@@H]2O[C@H]12 (some centres undefined) ?
result: > 100 µM

query: Report TGI for CCCNC(=O)c1cc(NC(=O)c2cc(NC(=O)/C=C/c3ccccc3)c(OC)c(OC)c2)c(OC)c(OC)c1 please.
result: 11.2 µM

query: Param item = O=C(NCCO)Nc1ccc(-c2nc(N3CCOCC3)c3cccn3n2)cc1 ; retrieve measured TGI.
result: 2.13 µM

Data origin, for the record: PubChem BioAssay (NCI)
